This section presents compounds with their documented TGI values.
# System: LOX IMVI melanoma
# Test method notes: NCI tumour cell line growth inhibition, 48 h
Measurement name: TGI

1) CCN1CCC(O)(c2ccccc2)C(C(=O)c2ccccc2)C1 (centres undefined)    > 31.6 µM
2) O=C1c2ccccc2-c2ccc(N(Cc3ccc(Br)cc3)Cc3ccc(Br)cc3)cc21    > 100 µM
3) CN(Cc1cnc2nc(N)nc(N)c2n1)c1ccc(C(=O)NC2CCCCC2)cc1    > 100 µM
4) CCOC(=O)CC(=O)Nc1c(C(=O)OCC)sc2nc(SC)nc(Nc3ccc(OC)c(OC)c3)c12    > 100 µM

----------
Measured TGI, listed per entry for reference.
# Tested on: NCI-H226 lung
# Test method notes: NCI tumour cell line growth inhibition, 48 h
Measurement name: TGI

1) Cc1ccc(CCCC(=O)O)cc1C    > 100 µM
2) c1ccc(COc2ccc(Nc3ncnc4ccc(-c5ccco5)cc34)cc2)cc1    > 21.5 µM
3) COC(=O)C(NC(=O)C12CCC(C)(C(=O)O1)C2(C)C)c1cc(C(C)(C)C)c(O)c(C(C)(C)C)c1 (stereo unspecified)    > 100 µM
4) NC(=S)NS(=O)(=O)c1ccc(F)cc1    > 100 µM
5) CC1C2CC(CC2=O)C1(C)C (stereo unspecified)    > 100 µM
6) COc1cccc(/C=N/[N-]C(N)=O)c1[O-].[OH3+].[Zn+2]    > 100 µM

----------
# System: MALME-3M melanoma
# Test method notes: NCI tumour cell line growth inhibition, 48 h
Measurement name: TGI

1) CC(C)c1cccc(C(C)C)c1NC(=S)Nc1ccccc1    > 100 µM
2) CC1=NN(c2ccccc2Cl)C2(C1)SCC(=O)N2c1nc2ccccc2s1 (stereo not drawn)    > 100 µM
3) CC(=O)Nc1ccccc1S(=O)(=O)c1c(-c2c(C)c(Cl)c(C)c(Cl)c2C)noc1C    > 100 µM

----------
The reader will find reported TGI values listed item by item below.
# Tested on: M14 melanoma
# Test method notes: NCI tumour cell line growth inhibition, 48 h
Measurement name: TGI

1) Cc1cc2c(cc1-c1cc3c(cc1C)C(C(C)C)=C(O)C(=O)/C3=C\Nc1cccc3c(N)cccc13)/C(=C/Nc1cccc3c(N)cccc13)C(=O)C(O)=C2C(C)C    > 100 µM
2) c1ccc(NC2(c3nnnn3C3CCCCC3)CCNCC2)cc1    35.8 µM
3) O=C(O)Cc1ccccc1    > 2000 µM
4) COc1ccc(N=C/C=C/C(=C/COC(C)=O)OC(C)=O)cc1    > 100 µM
5) CC(C)Cn1cnnc1NS(=O)(=O)c1cc(C(=O)NN)c(Cl)cc1S    > 10 µM
6) O=C(/C=C/c1cccnc1)/C=C/c1cccnc1    4.62 µM
7) NC(N)=NCCCS(=O)(=O)Nc1ccc(Nc2c3ccccc3nc3cc([N+](=O)[O-])ccc23)cc1    > 87.2 µM
8) COC(=O)C1(Cc2ccccc2C)Cc2ccc(C)cc2C1=O (stereo not drawn)    > 100 µM

----------
# System: LOX IMVI melanoma
# Test method notes: NCI tumour cell line growth inhibition, 48 h; in the data active means GI50 below about 0.43 µM; inactive means the rest
Outcomes: yes (active), no (inactive)

1) COc1ccc(C2=NN(c3ccc(S(N)(=O)=O)cc3)C(c3ccc(Cl)cc3)C2)c(O)c1 (centres undefined)    no
2) C/C(=N\NC(=S)Nc1ccccc1)c1ccccn1    yes
3) C=C1CCC2C3(C)COC(c4cccc(Cl)c4)OC3CCC2(C)C1/C=C/C1=CCOC1=O (centres undefined)    no
4) Oc1ccc(-c2nc(-c3ccc(F)cc3)c(-c3ccncc3)[nH]2)cc1    no

Taken from PubChem BioAssay (NCI).
